The following compounds are listed with their measured combination Emax values.
Test system: CCRF-CEM (T-Lymphoblastic Leukemia)
ASSAY_PROTOCOL: combination Emax (second highest fraction inhibited in the dose matrix, 72 h); higher = more inhibition; extreme values may be limits of the assay
Respond using a number only.

COMPOUND	TARGET_OF_ASSAY	OBSERVED_MEASUREMENT
COc1nnc2ccc(N3CCC(c4ccc(OCCN5CCN(C)C(=O)[C@H]5C)cc4)CC3)nn12 [AZD5153] + Cc1c2c(nn1C)CSCc1cc(n(C)n1)CSc1cc(c3ccccc3c1)OCCCc1c(C(=O)O)n(C)c3c-2c(Cl)ccc13 [AZD5991] (first compound max 1 µM, 7x7, partner max 1 µM)	CCRF-CEM (T-Lymphoblastic Leukemia)	0.858

combination Emax reading for N#Cc1cnc(Nc2cc(NC[C@H]3CNCCO3)c(C(F)(F)F)cn2)cn1 [SRA737] + Nc1ccn([C@@H]2O[C@H](CO)[C@@H](O)C2(F)F)c(=O)n1 [Gemcitabine] (first compound max 10 µM, 7x7, partner max 0.3 µM) : 1

combination Emax reading for Cc1cc2ncnn2cc1Nc1ncc2c(n1)n(C1CCOCC1)c(=O)n2C [AZD7648] + CN(C)CCCOc1ccc(-c2ccc3ncc4c(c3c2)n(C2CCOCC2)c(=O)n4C)cn1 [AZD0156] (first compound max 10 µM, 7x7, partner max 1 µM) : 0.521

combination Emax reading for COc1nnc2ccc(N3CCC(c4ccc(OCCN5CCN(C)C(=O)[C@H]5C)cc4)CC3)nn12 [AZD5153] + CC1(C)CCC(CN2CCN(c3ccc(C(=O)NS(=O)(=O)c4ccc(NCC5CCOCC5)c([N+](=O)[O-])c4)c(Oc4cnc5[nH]ccc5c4)c3)CC2)=C(c2ccc(Cl)cc2)C1 [Venetoclax] (first compound max 1 µM, 7x7, partner max 1 µM) : 0.562

combination Emax reading for Cn1cnc2c(F)c(Nc3ccc(Br)cc3Cl)c(C(=O)NOCCO)cc21 [Selumetinib] + C[C@@H]1COCCN1C2=NC(=NC(=C2)C3(CC3)[S@](=N)(=O)C)C4=C5C=CNC5=NC=C4 [AZD6738] (first compound max 10 µM, 7x7, partner max 10 µM) : 0.963

combination Emax reading for COc1cc2c(cc1OCCCCCOc1cc3c(cc1OC)C(=O)N1C=C(C)C[C@H]1C=N3)N=C[C@@H]1CC(C)=CN1C2=O [SG3199] + O=C(c1cc(Cc2n[nH]c(=O)c3ccccc23)ccc1F)N1CCN(C(=O)C2CC2)CC1 [Olaparib] (first compound max 0.001 µM, 7x7, partner max 10 µM) : 0.257

combination Emax reading for Cc1cc2ncnn2cc1Nc1ncc2c(n1)n(C1CCOCC1)c(=O)n2C [AZD7648] + O=C(c1cc(Cc2n[nH]c(=O)c3ccccc23)ccc1F)N1CCN(C(=O)C2CC2)CC1 [Olaparib] (first compound max 10 µM, 7x7, partner max 10 µM) : 0.454

combination Emax reading for CC1(C)CCC(CN2CCN(c3ccc(C(=O)NS(=O)(=O)c4ccc(NCC5CCOCC5)c([N+](=O)[O-])c4)c(Oc4cnc5[nH]ccc5c4)c3)CC2)=C(c2ccc(Cl)cc2)C1 [Venetoclax] + C1CN(CCC1(C(=O)N[C@@H](CCO)C2=CC=C(C=C2)Cl)N)C3=NC=NC4=C3C=CN4 [Capivasertib] (first compound max 1 µM, 7x7, partner max 3 µM) : 0.957

combination Emax reading for Cc1nc(-c2cn3c(n2)-c2ccc(-c4cnn(C(C)(C)C(N)=O)c4)cc2OCC3)n(C(C)C)n1 [Taselisib] + O=C(Nc1ccc2[nH]nc(-c3ccncc3)c2c1)[C@@H]1CCN(CC(=O)N2CCN(c3ccc(-c4ncccn4)cc3)CC2)C1 [SCH772984] (first compound max 10 µM, 7x7, partner max 5 µM) : 0.611

combination Emax reading for CN(CCO)CC[C@H](CSc1ccccc1)Nc1ccc(S(=O)(=O)NC(=O)c2ccc(N3CCC([C@@H](O)c4ccccc4-c4ccc(Cl)cc4)CC3)cc2)cc1S(=O)(=O)C(F)(F)F [AZD4320] + CS(=O)(=O)CCNCc1ccc(-c2ccc3ncnc(Nc4ccc(OCc5cccc(F)c5)c(Cl)c4)c3c2)o1 [Lapatinib] (first compound max 1 µM, 7x7, partner max 10 µM) : 1

combination Emax reading for CS(=O)(=O)CCNCc1ccc(-c2ccc3ncnc(Nc4ccc(OCc5cccc(F)c5)c(Cl)c4)c3c2)o1 [Lapatinib] + Cn1cnc2c(F)c(Nc3ccc(Br)cc3Cl)c(C(=O)NOCCO)cc21 [Selumetinib] (first compound max 10 µM, 7x7, partner max 10 µM) : 0.46

combination Emax reading for NC1(C(=O)N[C@@H](CCO)c2ccc(Cl)cc2)CCN(c2ncnc3[nH]ccc23)CC1 [Capivasertib] + CCN(CCO)CCCOc1ccc2c(Nc3cc(CC(=O)Nc4cccc(F)c4)[nH]n3)ncnc2c1 [AZD2811] (first compound max 10 µM, 7x7, partner max 1 µM) : 1

combination Emax reading for CC1(C)CCC(CN2CCN(c3ccc(C(=O)NS(=O)(=O)c4ccc(NCC5CCOCC5)c([N+](=O)[O-])c4)c(Oc4cnc5[nH]ccc5c4)c3)CC2)=C(c2ccc(Cl)cc2)C1 [Venetoclax] + Cn1cnc2c(F)c(Nc3ccc(Br)cc3Cl)c(C(=O)NOCCO)cc21 [Selumetinib] (first compound max 1 µM, 7x7, partner max 3 µM) : 0.926
